Assay: Absorption and emission properties of HBR-binding PYP variants in presence of HBR
Type: physicochemical
Conditions: variant with HBR
measuredProperty: brightness

molecule="Clone 3: best fluorescent HBR-binding PYP variant, SEQ ID NO: 3, residues 94-101 WMIPTSRG (protein, Functional derivative of SEQ ID NO: 48 - Clone 3) MEHVAFGSEDIENTLAKMDDGQLDGLAFGAIQLDGDGNILQYNAAEGDITGRDPKQVIGKNFFKDVAPGTDSPEFYGKFKEGVASGNLNTMFEWMIPTSRGPTKVKVHMKKALSGDSYWVFVKRV" measuredproperty=brightness measuredvalue=4,000
